- experimental.system: T1, human activated Protein C (human, UniProt P04070 43-461)
- T1 construct: also called human aPC; hAPC
- assay.text: Biacore, Fab
The entries below are paired with their reported Kd.
# output: bare number, implied unit nM

C25K23 Fab (Fab, V domains shown, Human Fab (lambda) from a phage library, expressed in E. coli; also called Fab C25K23) VH: EVQLLESGGGLVQPGGSLRLSCAASGFTFSSYWMSWVRQAPGKGLEWVSGVSWNGSRTHYADSVKGRFTISRDNSKNTLYLQMNSLRAEDTAVYYCALTGRSGWMRFPNWFDPWGQGTLVTVTS VL: QSVLTQPPSASGTPGQRVTISCTGSSSNIGAAYDVHWYQQLPGTAPKLLIYGNNKRPSGVPDRFSGSKSGTSASLAISGLRSEDEADYYCQSYDSSLSGSVFGGGTKLTVLG; 2

Continue with the next binder.
Param item = T46P19 Fab (Fab, V domains shown, Human Fab (lambda), expressed in E. coli) VH: EVQLLESGGGLVQPGGSLRLSCAASGFTFSGYGMHWVRQAPGKGLEWVSGINWNGGSTGYADSVKGRFTISRDNSKNTLYLQMNSLRAEDTAVYYCARNRATRSGYYYFDSWGQGTLVTVTS VL: LTQPPSASGTPGQRVTISCTGSSSNIGAGYDVHWYQQLPGTAPKLLIYGNINRPSGVPDRFSGSKSGTSASLAISGLRSEDEADYYCSSYTRSATLVFGGGTKLTVLG ; retrieve measured Kd.
7.2
